- Test system: Trypanosoma cruzi
- test method notes: Trypanosoma cruzi phosphomannomutase and mannose-1-phosphate guanylyltransferase assay
- Format: functional
- Design: scale not given: direction of the effect not stated beside the values
- measurement context: 10 µM
The reader will find reported Percent Effect values listed item by item below.
measured endpoint: Percent Effect (%)

| compound | study target | measured endpoint | value units | observed result |
| --- | --- | --- | --- | --- |
| COc1ccc(-n2nnc(C(=O)NC(C)C)c2C2CC2)cc1 | Trypanosoma cruzi | Percent Effect | % | 4.96 |
| COc1ncccc1NC(=O)C1CCN(S(C)(=O)=O)CC1 | Trypanosoma cruzi | Percent Effect | % | 0.749 |
| CNC(=O)[C@H]1C[C@@H]2CN(C(=O)Nc3ccc(F)cc3)C[C@H]1O2 | Trypanosoma cruzi | Percent Effect | % | 1.28 |
| Cc1noc(C)c1C(=O)NCc1ccc(N2CCOC(C)C2)nc1 (stereo unspecified) | Trypanosoma cruzi | Percent Effect | % | -0.402 |
| COCC1CN(C(=O)COc2ccccc2)Cc2cn(C)nc21 (stereo unspecified) | Trypanosoma cruzi | Percent Effect | % | -2.27 |
| CCc1nccn1C1CCCN(C(=O)c2cn3c(C)cccc3n2)C1 (stereo unspecified) | Trypanosoma cruzi | Percent Effect | % | 3.6 |
| CC(=O)N1CCCC1c1ccc(C(=O)N2CCOCC2)s1 (stereo unspecified) | Trypanosoma cruzi | Percent Effect | % | -4.2 |
| c1csc(CN2CCO[C@H]3[C@H](OCCN4CCCC4)CC[C@@H]32)n1 | Trypanosoma cruzi | Percent Effect | % | -0.885 |
| c1cnc(-c2nc(CNCCn3cccn3)cs2)nc1 | Trypanosoma cruzi | Percent Effect | % | -1.5 |
| CC(NC1(CNC(=O)C(C)(C)C#N)CCOCC1)c1ccccc1 (stereo unspecified) | Trypanosoma cruzi | Percent Effect | % | -3.03 |
| O=C(c1ccoc1)N1CC[C@@H]2[C@H]1CCC(=O)N2c1ccccc1 | Trypanosoma cruzi | Percent Effect | % | -1.97 |
